Listed below: MIC50 values for each entry.
Test system: E. coli ATCC25922 strain
Assay: MIC 50, broth micro-dilution, wild-type Escherichia coli
Format: cell-based
Settings: MH2, 18 h
Observable: MIC50

[[record]]
compound = "N=C(N)NC1[C@@H](O)C(OC2[C@@H](O)[C@H](O[C@H]3OC(CN)[C@@H](O)CC3N)C(N)C[C@H]2NC(=O)[C@@H](O)CCN)O[C@H](CO)[C@H]1O (stereo partly drawn)"
observable = "MIC50"
recorded_result = "1 to 2 µM"

[[record]]
compound = "NCC[C@H](O)C(=O)N[C@@H]1CC(N)[C@@H](O[C@H]2OC(CN)[C@@H](O)[C@@H](O)C2N)[C@H](F)C1OC1O[C@H](CO)[C@@H](O)C(N)[C@H]1O (stereo partly drawn) [ABX4003, 3′Epi-KanaB-AHB-F]"
observable = "MIC50"
recorded_result = "4 to 8 µM"

[[record]]
compound = "NCC[C@H](O)C(=O)N[C@@H]1CC(N)[C@@H](O[C@H]2OC(CN)[C@@H](O)[C@@H](O)C2N)[C@H](O)C1OC1O[C@H](CO)[C@@H](O)C(N)[C@H]1O (stereo partly drawn) [ABX4002, 3′Epi-KanaB-AHB]"
observable = "MIC50"
recorded_result = "8 µM"


* * *

Experiment: Maximum tolerated dose (MTD) / acute toxicity study, IV
Type: in vivo
Conditions: male, CD (Sprague Dawley), rat, in vivo, iv
Observable: MTD at 4 days

[[record]]
molecule = "N=C(N)NC1C(O)[C@@H](CO)OC(OC2C(F)[C@H](O[C@H]3OC(CN)[C@@H](O)CC3N)C(N)C[C@H]2NC(=O)[C@@H](O)CCN)[C@@H]1O (stereo partly drawn)"
recorded_result = "150 mg/kg"

[[record]]
molecule = "N=C(NC[C@@H]1CCNC1)NC1[C@@H](O)C(OC2[C@@H](F)[C@H](O[C@H]3OC(CN)[C@@H](O)CC3N)C(N)C[C@H]2NC(=O)[C@@H](O)CCN)O[C@H](CO)[C@H]1O (stereo partly drawn)"
recorded_result = "75 mg/kg"

[[record]]
molecule = "N=C(NC[C@@H]1CCCN1)NC1[C@@H](O)C(OC2[C@@H](F)[C@H](O[C@H]3OC(CN)[C@@H](O)CC3N)C(N)C[C@H]2NC(=O)[C@@H](O)CCN)O[C@H](CO)[C@H]1O (stereo partly drawn)"
recorded_result = "75 mg/kg"


* * *

System: A. baumannii DSM 105126
Assay: MIC 50, broth micro-dilution, DSM strains
Format: cell-based, Acinetobacter baumannii
Listed below: MIC50 values for each entry.
Observable: MIC50 (µM)

[[record]]
compound = "NCCC(O)C(=O)NC1CC(N)C(OC2OC(CN)C(O)C(O)C2N)C(F)C1OC1OC(CO)C(O)C(N)C1O (stereo not shown) [ABX4007, KanaB-AHB-F]"
recorded_result = 0.5

[[record]]
compound = "NCCC(O)C(=O)NC1CC(N)C(OC2OC(CN)C(O)C(O)C2O)C(F)C1OC1OC(CO)C(O)C(N)C1O (stereo not drawn) [ABX3005, 3′Epi-KanaA-AHB-F]"
recorded_result = 1

[[record]]
compound = "NCCC(O)C(=O)NC1CC(N)C(OC2OC(CN)C(O)C(O)C2N)C(O)C1OC1OC(CO)C(O)C(N)C1O (stereo not shown) [ABX4001, KanaB-AHB]"
recorded_result = 0.5

[[record]]
compound = "NCC[C@H](O)C(=O)N[C@@H]1CC(N)[C@@H](O[C@H]2OC(CN)[C@@H](O)[C@@H](O)C2N)[C@H](F)C1OC1O[C@H](CO)[C@@H](O)C(N)[C@H]1O (stereo partly drawn) [ABX4003, 3′Epi-KanaB-AHB-F]"
recorded_result = 0.5


* * *

Test system: E. coli (APH(3′)Ia)
Experiment: MIC 50, broth micro-dilution, E. coli expressing APH(3′)Ia
Assay type: cell-based, Escherichia coli
Details: ATCC25922 harboring plasmid encoding APH(3′)Ia
Listed below: MIC50 values for each entry.
Observable: MIC50

[[record]]
compound = "NCC[C@H](O)C(=O)N[C@@H]1CC(N)[C@@H](O[C@H]2OC(CN)[C@@H](O)CC2N)[C@H](O)C1OC1O[C@H](CO)[C@@H](O)C(N)[C@H]1O (stereo partly drawn)"
observable = "MIC50"
recorded_result = "4 to 8 µM"

[[record]]
compound = "NCCC(O)C(=O)NC1CC(N)C(OC2OC(CN)C(O)C(O)C2N)C(O)C1OC1OC(CO)C(O)C(N)C1O (stereo not drawn)"
observable = "MIC50"
recorded_result = "8 µM"

[[record]]
compound = "N=C(N)NC1[C@@H](O)C(OC2[C@@H](O)[C@H](O[C@H]3OC(CN)[C@@H](O)CC3N)C(N)C[C@H]2NC(=O)[C@@H](O)CCN)O[C@H](CO)[C@H]1O (stereo partly drawn)"
observable = "MIC50"
recorded_result = "2 to 4 µM"


* * *

Test system: clinical isolates of multidrug-resistant Klebsiella pneumoniae (and ATCC43816)
Test: MIC determination at Fidelta, clinical isolates
Assay type: cell-based
Conditions: Klebsiella pneumoniae, ATCC43816, KP-2029; Urine/ESBL, OXA-48
Listed below: MIC90 values for each entry.
Observable: MIC90 (µg/mL)

[[record]]
compound = "NC[C@H]1O[C@H](O[C@H]2[C@H](O)[C@@H](O[C@H]3O[C@H](CO)[C@@H](O)[C@H](N)[C@H]3O)[C@H](N)C[C@@H]2N)[C@H](N)C[C@@H]1O"
observable = "MIC90"
units = "µg/mL"
limit_sign = "="
recorded_result = 32

[[record]]
compound = "CC(C)(O/N=C(\\C(=O)N[C@@H]1C(=O)N2C(C(=O)[O-])=C(C[n+]3ccccc3)CS[C@H]12)c1csc(N)n1)C(=O)O [Ceftazidime, reference compound]"
observable = "MIC90"
units = "µg/mL"
limit_sign = ">"
recorded_result = 64

[[record]]
compound = "NCC[C@H](O)C(=O)N[C@@H]1C[C@H](N)[C@@H](O[C@H]2O[C@H](CN)[C@@H](O)[C@H](O)[C@H]2O)[C@H](O)[C@H]1O[C@H]1O[C@H](CO)[C@@H](O)[C@H](N)[C@H]1O [Amikacin, amikacin, reference compound]"
observable = "MIC90"
units = "µg/mL"
limit_sign = "="
recorded_result = 8

[[record]]
compound = "C[C@@H](O)[C@H]1C(=O)N2C(C(=O)O)=C(S[C@@H]3CN[C@H](C(=O)N(C)C)C3)[C@H](C)[C@H]12 [Meropenem, meropenem, reference compound]"
observable = "MIC90"
units = "µg/mL"
limit_sign = "="
recorded_result = 4


* * *

Test system: E. coli (AAC(3)IV)
Test: MIC 50, broth micro-dilution, E. coli expressing AAC(3)IV
Assay type: cell-based, Escherichia coli
Settings: Escherichia coli, ATCC25922, ATCC25922 harboring plasmid encoding AAC(3)IV
Observable: MIC50 (µM)

[[record]]
compound = "N=C(NCC1CC1)NC1[C@@H](O)C(OC2[C@@H](F)[C@H](O[C@H]3OC(CN)[C@@H](O)CC3N)C(N)C[C@H]2NC(=O)[C@@H](O)CCN)O[C@H](CO)[C@H]1O (some centres unmarked) [ABX5027, Tobra-AHB-F-Gua cyclopropylmethyl]"
observable = "MIC50"
units = "µM"
recorded_result = 2

[[record]]
compound = "CNCCNC(=N)NC1[C@@H](O)C(OC2[C@@H](F)[C@H](O[C@H]3OC(CN)[C@@H](O)CC3N)C(N)C[C@H]2NC(=O)[C@@H](O)CCN)O[C@H](CO)[C@H]1O (some centres unmarked) [ABX5038, Tobra-AHB-F-Gua 2-(methylamino)ethyl]"
observable = "MIC50"
units = "µM"
recorded_result = 1


* * *

System: A. baumannii DSM 105126
Test: MIC 50, broth micro-dilution, DSM strains
Format: cell-based, Acinetobacter baumannii
Observable: MIC50

[[record]]
compound = "N=C(N)N[C@@H]1[C@@H](O)[C@@H](O[C@@H]2[C@@H](O)[C@H](O[C@H]3O[C@H](CN)[C@@H](O)[C@@H](O)[C@H]3N)[C@@H](N)C[C@H]2NC(=O)[C@@H](O)CCN)O[C@H](CO)[C@H]1O [ABX4005, 3′Epi-KanaB-AHB-Gua]"
observable = "MIC50"
recorded_result = "0.5 µM"

[[record]]
compound = "N=C(N)NC1[C@@H](O)C(OC2[C@@H](F)[C@H](O[C@H]3OC(CN)[C@@H](O)[C@H](O)C3N)C(N)C[C@H]2NC(=O)[C@@H](O)CCN)O[C@H](CO)[C@H]1O (stereo partly drawn) [ABX4004, 3′epi-KanaB-AHB-F-Gua]"
observable = "MIC50"
recorded_result = "0.125 µM"

[[record]]
compound = "NCC[C@H](O)C(=O)N[C@@H]1CC(N)[C@@H](O[C@H]2OC(CN)[C@@H](O)CC2N)[C@H](O)C1OC1O[C@H](CO)[C@@H](O)C(N)[C@H]1O (some centres unmarked)"
observable = "MIC50"
recorded_result = "0.5 µM"

[[record]]
compound = "NCC[C@H](O)C(=O)N[C@@H]1C[C@H](N)[C@@H](O[C@H]2O[C@H](CN)[C@@H](O)[C@@H](O)[C@H]2O)[C@H](O)[C@H]1O[C@H]1O[C@H](CO)[C@@H](O)[C@H](N)[C@H]1O [ABX3002, 3′Epi-KanaA-AHB]"
observable = "MIC50"
recorded_result = "2 µM"

[[record]]
compound = "NCC[C@H](O)C(=O)N[C@@H]1CC(N)[C@@H](O[C@H]2OC(CN)[C@@H](O)[C@@H](O)C2N)[C@H](O)C1OC1O[C@H](CO)[C@@H](O)C(N)[C@H]1O (stereo partly drawn) [ABX4002, 3′Epi-KanaB-AHB]"
observable = "MIC50"
recorded_result = "0.5 µM"

